tested system: TRKA (G595R) (Homo sapiens (Human), UniProt P04629, G595R)
Sequence (P04629 33-796 G595R): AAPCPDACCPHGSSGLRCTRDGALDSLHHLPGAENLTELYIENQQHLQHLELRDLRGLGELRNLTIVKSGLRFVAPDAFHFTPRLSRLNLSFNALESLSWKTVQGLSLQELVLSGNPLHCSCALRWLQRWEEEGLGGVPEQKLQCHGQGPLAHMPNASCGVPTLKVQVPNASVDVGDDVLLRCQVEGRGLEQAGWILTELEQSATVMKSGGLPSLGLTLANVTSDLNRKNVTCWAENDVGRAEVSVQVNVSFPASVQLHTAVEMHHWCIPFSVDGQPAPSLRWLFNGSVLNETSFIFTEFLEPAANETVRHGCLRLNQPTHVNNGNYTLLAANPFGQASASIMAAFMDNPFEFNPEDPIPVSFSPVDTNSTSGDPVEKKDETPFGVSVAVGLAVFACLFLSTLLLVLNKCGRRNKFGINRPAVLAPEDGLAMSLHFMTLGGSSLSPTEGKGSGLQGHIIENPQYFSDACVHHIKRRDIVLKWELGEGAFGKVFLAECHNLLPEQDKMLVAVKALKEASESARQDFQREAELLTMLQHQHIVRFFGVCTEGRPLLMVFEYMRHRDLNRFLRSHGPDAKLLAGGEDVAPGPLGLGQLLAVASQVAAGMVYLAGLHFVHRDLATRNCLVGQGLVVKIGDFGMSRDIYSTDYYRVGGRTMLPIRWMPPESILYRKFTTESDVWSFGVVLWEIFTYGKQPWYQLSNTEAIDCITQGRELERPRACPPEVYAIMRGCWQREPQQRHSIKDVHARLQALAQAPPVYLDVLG
assay notes: Radio-tagged HotSpot kinase assay, TRKA (G595R)
pIC50: −log10 of the molar value.
Here the recorded pIC50 is given for each entry.

C[C@@H](Nc1ccn2ncc(C3=NCC(C)(C)N3)c2n1)c1cc(F)ccc1F | 8.30 to 9.30
C[C@@H](Nc1ccn2ncc(C3=NOC(C)(C)N3)c2n1)c1c(Cl)ccc(F)c1Cl | 7.30 to 8.30

Now look at this one.
Record summary for `C[C@@H](Nc1ccn2ncc(C3=NOC(C)(C)N3)c2n1)c1cc(F)ccc1F` : reported pIC50 = 7.30 to 8.30

====

Catalogue of IC50 readings, one per entry.
tested system: TRKA (Homo sapiens (Human))
assay notes: Radio-tagged HotSpot kinase assay, TRKA
condition summary: read-out: TRKA (IC50/nM); 33P-ATP, 120 min, room temperature

Sample answers from the record:
CCCCC1NC(c2cnn3ccc(N[C@H](C)c4cc(F)ccc4O)nc23)=NO1 (some centres unmarked) | < 0.5 nM
C[C@H](Nc1ccn2ncc(C3=NOC(C)(C)N3)c2n1)c1cc(F)ccc1Br | > 500 nM
C[C@@H](Nc1ccn2ncc(C3=NOC(C)(C)N3)c2n1)c1cc(F)ccc1O | < 0.5 nM
COc1ccc(F)cc1[C@@H](C)Nc1ccn2ncc(C3=NOC(C)(C)N3)c2n1 | < 0.5 nM

Here is the next item to consider.
Field IC50 (entry `COc1ncc(F)cc1[C@@H](C)Nc1ccn2ncc(C3=NOC(C)(C)N3)c2n1` ) reads < 0.5 nM

====

The compounds listed here are annotated with their pIC50.
tested system: TRKA (Homo sapiens (Human), UniProt P04629)
Sequence (P04629 33-796): as the sequence (P04629 33-796 G595R) above, with R563G counted along it
assay notes: Radio-tagged HotSpot kinase assay, TRKA;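 note: kinase activity measured through incorporation of 33P from labelled ATP into substrate, 120 min at room temperature, relative to a DMSO-only blank control, reported as inhibition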
pIC50: −log10 of the molar value.

Look over these answered cases.
CC(Nc1ccn2ncc(C3=NOC(C)(C)N3)c2n1)c1ccc(F)cc1 (racemic) [Example 25 racemate] | 6.30 to 7.30
CCc1ccc(F)cc1[C@@H](C)Nc1ccn2ncc(C3=NOC(C)(C)N3)c2n1 | 8.30 to 9.30

Reported pIC50 for `CCOc1ccc(F)cc1[C@@H](C)Nc1ccn2ncc(C3=NOC(C)(C)N3)c2n1` was 8.30 to 9.30

Short answer for CCOCC1(C)NC(c2cnn3ccc(N[C@H](C)c4cc(F)ccc4O)nc23)=NO1 (some centres unmarked) : pIC50 was 8.30 to 9.30

Recorded pIC50 (compound `C[C@@H](Nc1ccn2ncc(C3=NCC(C)(C)N3)c2n1)c1cc(F)ccc1F` ): 8.30 to 9.30

The recorded pIC50 for entry `C[C@@H](Nc1ccn2ncc(C3=NOC(C)(C)N3)c2n1)c1cc(F)ccc1Br` equals 8.30 to 9.30

Value of pIC50 reported for the compound `C[C@@H](Nc1ccn2ncc(C3=NOC(C)(C)N3)c2n1)c1ccc(F)cc1` is 6.30 to 7.30

pIC50 for `C[C@@H](Nc1ccn2ncc(C3=NOC(C)(C)N3)c2n1)c1cc(F)ccc1F` is 8.30 to 9.30

Documented pIC50 of `C[C@H](Nc1ccn2ncc(C3=NOC(C)(C)N3)c2n1)c1cc(F)cc2ccccc12` : 8.30 to 9.30

Reported pIC50 ( `CC(C)Oc1ccc(F)cc1[C@@H](C)Nc1ccn2ncc(C3=NOC(C)(C)N3)c2n1` ) = 8.30 to 9.30

According to the records, this compound `Cc1nc(-c2cnn3ccc(N[C@H](C)c4cc(F)ccc4O)nc23)no1` displays pIC50 of 7.30 to 8.30
